- experimentalSystem: SARS-Cov-2 3CLpro (Severe acute respiratory syndrome coronavirus 2)
- assayText: biochemical
- appliedConditions: Table A, class symbols, read-out: SARS-Cov-2 (IC50)
pIC50: −log10 of the molar value.
parameterMeasured: pIC50

The following compounds have reported results that may help.
Using the record for CN(C(=O)[C@H](CC1CC1)NS(=O)(=O)c1ccc(F)cc1)[C@@H](CC1CC1)C(=O)N1C[C@@]2(C[C@H]1C#N)Oc1cccnc1NC2=O , report its pIC50. > 7.70

Using the record for C[C@H](NC(=O)C(F)(F)F)C(=O)N(C)[C@@H](COC(C)(C)C)C(=O)N1C[C@@]2(C[C@H]1C#N)Oc1cc(F)cc(F)c1NC2=O , report its pIC50. > 7.70

Using the record for COCC[C@H](NC(=O)C(F)(F)F)C(=O)N(C)[C@@H](CC1CC1)C(=O)N1C[C@@]2(C[C@H]1C#N)Oc1cc(F)cc(F)c1NC2=O , report its pIC50. > 7.70

Using the record for CC(C)C[C@@H](C(=O)N1C[C@@]2(C[C@H]1C#N)N=C(c1ccccc1)NC2=O)N(C)C(=O)[C@H](C)NC(=O)C(F)(F)F , report its pIC50. 6.70 to 7.70

Using the record for Cc1ccc2c(n1)NC(=O)[C@]1(C[C@@H](C#N)N(C(=O)[C@H](CC3CC3)N(C)C(=O)[C@H](C)NC(=O)C(F)(F)F)C1)O2 , report its pIC50. > 7.70

Using the record for C[C@H](NC(=O)C(F)(F)F)C(=O)N(C)[C@H](C(=O)N1C[C@@]2(C[C@H]1C#N)Oc1cc(F)cc(F)c1NC2=O)[C@@H](C)OC(C)(C)C , report its pIC50. 5.70 to 6.70

Others:
Using the record for CC(C)C[C@@H](C(=O)N1C[C@@]2(CC1C#N)Oc1cc(F)cc(F)c1NC2=O)N(C)C(=O)[C@H](C)NC(=O)C(F)(F)F (stereo partly drawn) , report its pIC50. > 7.70

Using the record for CN(C(=O)[C@H](CC1CC1)NC(=O)C(F)(F)F)[C@@H](CC1CC1)C(=O)N1C[C@@]2(C[C@H]1C#N)Oc1cc(C(=O)N3CCOCC3)ccc1NC2=O , report its pIC50. > 7.70

Using the record for CCOC[C@H](NC(=O)C(F)(F)F)C(=O)N(C)[C@@H](CC1CC1)C(=O)N1C[C@@]2(C[C@H]1C#N)Oc1cccnc1NC2=O , report its pIC50. > 7.70

Using the record for CC(C)C[C@@H](C(=O)N1C[C@]2(CC(c3ccccc3)=NNC2=O)C[C@H]1C#N)N(C)C(=O)c1cc2c(F)cc(F)c(F)c2[nH]1 , report its pIC50. > 7.70

Using the record for CC(C)C[C@@H](C(=O)N1C[C@@]2(C[C@H]1C#N)CC(C)(C)NC2=O)N(C)C(=O)[C@H](C)NC(=O)C(F)(F)F , report its pIC50. 6.70 to 7.70

Using the record for CN(C(=O)[C@@H](NC(=O)C(F)(F)F)C1CCCC1)[C@@H](CC1CC1)C(=O)N1C[C@@]2(C[C@H]1C#N)Oc1cccnc1NC2=O , report its pIC50. > 7.70

* * *

- Tested on: A549-dual_ACE2_TMPRSS2 cells
- assayText: Toxicity testing in A549-dual_ACE2_TMPRSS2 cells without virus (MTS)
- appliedConditions: read-out: A549-dual_ACE2_TMPRSS2 (CC50); Table C; A549-dual_ACE2_TMPRSS2 cells without virus, class symbols
parameterMeasured: CC50

Using the record for Cc1nnn(C(CC2CC2)C(=O)N(C)[C@@H](CC2CC2)C(=O)N2C[C@@]3(C[C@H]2C#N)Oc2cc(F)cc(F)c2NC3=O)c1C (relative stereo) , report its CC50. > 1 µM

// provenance: patent US20240199647A1
